- System: SEM cells
- assay.details: cell viability relative to DMSO control; higher = less cytotoxic
- condition.context: HPLM + 10% dialyzed FBS; 48 h; 46.1 µM
API: label(entry) gives yes if the entry's cell viability is strictly smaller than 40%; on equality or larger values it gives no.

# compound, cat
records = [
    ("Cc1ncc(OC[C@@]2(c3cccc(F)c3)C[C@H]2C(=O)Nc2ccc(F)cn2)c(C)n1", "no"),
    ("C[C@H]1C[C@H]2[C@@H]3CCC4=CC(=O)C=C[C@]4(C)[C@@]3(F)[C@@H](O)C[C@]2(C)[C@@]1(O)C(=O)CO", "no"),
    ("CC(=O)Nc1ccc([C@H](C)C(=O)Nc2ncc(C(C)C)s2)cc1", "yes"),
    ("CCn1c(-c2nonc2N)nc2cncc(CNC3CCNCC3)c21", "yes"),
    ("NC(CO)(CO)CCc1ccc(Sc2cccc(OCc3ccccc3)c2)cc1Cl", "yes"),
    ("CC(C)n1nc(-c2ccc3oc(N)nc3c2)c2c(N)ncnc21", "yes"),
    ("CC1(C)C(=O)N(CCN2CCC(C(=O)c3ccc(F)cc3)CC2)c2ccccc21", "no"),
    ("CO[C@H]1C[C@@H]2CC[C@@H](C)[C@@](O)(O2)C(=O)C(=O)N2CCCC[C@H]2C(=O)O[C@H]([C@H](C)C[C@@H]2CC[C@@H](OC(=O)C(C)(CO)CO)[C@H](OC)C2)CC(=O)[C@H](C)/C=C(\\C)[C@@H](O)[C@@H](OC)C(=O)[C@H](C)C[C@H](C)/C=C/C=C/C=C/1C", "no"),
    ("O=C1Nc2ccc(Cl)cc2[C@@](C#CC2CC2)(C(F)(F)F)O1", "no"),
    ("CCNC(=O)c1cc2c(-c3cc(OCCN4CCCC4)c(Cl)cc3Cl)nc(N)nc2s1", "yes"),
    ("Oc1ccc(C2CCN(c3ccnc4ccccc34)CC2)cc1O", "yes"),
    ("COc1cc(Nc2ncc(F)c(Nc3ccc4c(n3)NC(=O)C(C)(C)O4)n2)cc(OC)c1OC", "yes"),
    ("CCc1c(C(=O)C(N)=O)c2c(OCC(=O)O)cccc2n1Cc1ccccc1", "no"),
    ("CC(=O)NC(CS)C(=O)O (configuration not stated)", "no"),
    ("Clc1cc(Cl)cc(CNc2ncncc2-c2ccc3c(c2)OCO3)c1", "yes"),
    ("CN(C)C(=O)c1ccc([S+](=O)([O-])c2ccc(NC(=O)[C@@](C)(O)C(F)(F)F)c(Cl)c2)cc1", "no"),
    ("CC(C)(C)C(=O)OCOP(=O)(COCCn1cnc2c(N)ncnc21)OCOC(=O)C(C)(C)C", "yes"),
]
